Value source: patent US10189841B2

Listing of entries alongside the reported IC50.
target: USP1 (construct USP1 (I-785, GG670, 671AA)/UAF1 (I-677)-Flag) (Homo sapiens (Human), UniProt O94782, G670A/G671A); experiment: Ubiquitin-Rhodamine 110 assay for USP1 activity; settings: USP1/UAF1 25 pM, Ub-Rh110 25 nM, 30 min preincubation
Sequence (O94782 whole entry G670A/G671A): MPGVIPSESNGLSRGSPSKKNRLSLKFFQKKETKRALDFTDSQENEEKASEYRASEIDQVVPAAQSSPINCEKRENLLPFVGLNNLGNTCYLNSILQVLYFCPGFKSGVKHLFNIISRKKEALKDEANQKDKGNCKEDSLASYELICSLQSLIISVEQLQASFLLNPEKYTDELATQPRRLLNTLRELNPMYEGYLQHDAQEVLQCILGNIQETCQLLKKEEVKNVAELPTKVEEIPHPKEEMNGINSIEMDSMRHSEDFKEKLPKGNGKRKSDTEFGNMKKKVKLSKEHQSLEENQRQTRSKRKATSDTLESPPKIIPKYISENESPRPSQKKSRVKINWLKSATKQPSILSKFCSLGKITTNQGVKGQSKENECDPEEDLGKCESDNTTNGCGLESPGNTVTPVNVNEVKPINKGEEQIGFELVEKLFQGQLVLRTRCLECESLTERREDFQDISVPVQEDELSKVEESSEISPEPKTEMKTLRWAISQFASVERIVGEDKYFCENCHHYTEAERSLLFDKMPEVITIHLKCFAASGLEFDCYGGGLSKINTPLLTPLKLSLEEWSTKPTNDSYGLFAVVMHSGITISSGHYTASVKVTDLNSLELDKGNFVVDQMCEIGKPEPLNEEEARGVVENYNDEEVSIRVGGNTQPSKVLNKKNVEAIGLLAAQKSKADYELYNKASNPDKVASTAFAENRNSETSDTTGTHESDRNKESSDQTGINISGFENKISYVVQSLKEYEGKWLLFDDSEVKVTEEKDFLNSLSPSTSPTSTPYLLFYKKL
Sequence (Q8TAF3 whole entry partner): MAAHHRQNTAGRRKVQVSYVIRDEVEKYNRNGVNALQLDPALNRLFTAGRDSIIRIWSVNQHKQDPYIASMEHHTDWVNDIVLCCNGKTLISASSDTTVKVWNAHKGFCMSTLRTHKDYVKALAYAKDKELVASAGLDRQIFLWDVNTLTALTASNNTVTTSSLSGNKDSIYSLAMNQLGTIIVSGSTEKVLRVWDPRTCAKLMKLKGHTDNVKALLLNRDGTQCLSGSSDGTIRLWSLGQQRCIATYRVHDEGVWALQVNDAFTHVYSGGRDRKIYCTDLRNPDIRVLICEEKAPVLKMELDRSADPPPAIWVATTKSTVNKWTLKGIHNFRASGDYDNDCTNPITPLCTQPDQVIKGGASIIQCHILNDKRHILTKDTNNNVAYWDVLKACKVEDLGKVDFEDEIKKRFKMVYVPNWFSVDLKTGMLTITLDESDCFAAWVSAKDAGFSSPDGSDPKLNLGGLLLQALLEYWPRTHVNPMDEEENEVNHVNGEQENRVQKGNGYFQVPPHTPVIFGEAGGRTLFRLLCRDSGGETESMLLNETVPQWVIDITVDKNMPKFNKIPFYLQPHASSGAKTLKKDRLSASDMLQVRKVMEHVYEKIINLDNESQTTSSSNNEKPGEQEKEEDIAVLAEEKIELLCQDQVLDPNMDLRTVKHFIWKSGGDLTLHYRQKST
REPORTED_METRIC: IC50

1) CC(C)c1ccccc1-c1ncc2c(n1)n(Cc1ccc(N(C)C(=O)NC3CC3)cc1)c(=O)n2C: 200 to 2000 nM
2) CC(C)c1ccccc1-c1ncc2[nH]c(=O)n(Cc3ccc(C(=O)N(C)C)cc3)c2n1: < 50 nM
3) CC(C)c1ccccc1-c1nc(N(C)C)c2[nH]c(=O)n(Cc3ccc(-c4nc(C(F)(F)F)cn4C)cc3)c2n1: < 50 nM
4) CC(C)c1ncccc1-c1ncc2c(n1)n(Cc1ccc(-c3nc(C(F)(F)F)cn3C)cc1)c(=O)n2C: < 50 nM
